// provenance: patent US11795460B2

Known Avg % Insert of a selection of sequences
# System: TTR
# MEASUREMENT_NOTES: TTR editing in primary cyno hepatocytes electroporated with Spy Cas9 protein and dgRNAs (Tables 10, 11)
# Assay type: cell-based, cynomolgus monkey
# RECORDED_CONDITIONS: primary cyno hepatocytes electroporated with Spy Cas9 protein (RNP) and cyno specific dgRNAs
# Experimental: Primary liver hepatocytes. Primary human liver hepatocytes (PHH) and primary cynomolgus liver hepatocytes (PCH) (Gibco) were cultured per the manufacturer's protocol (Invitrogen, protocol 11.28.2012). […] Cells were counted and plated on Bio-coat collagen I coated 96-well plates (ThermoFisher, Cat. 877272) at a density of 33,000 cells/well for human or 60,000 cells/well for cyno (or 65,000 cells/well when assaying effects on TTR protein, described further below). […]
Enter your answer as a number in %; do not include the unit.

Past entries and their recorded results:
# RESIDUE_STRING, TESTED_TARGET, Avg % Insert, %
rows = [
    ("CCAGUCCAGCGAGGCAGAGG (tested as dual guide RNA, chemistry not given here) [CR005367]", "TTR", 0.53),
    ("AAGUGACUUCCAGUAAGAUU (tested as dual guide RNA, chemistry not given here) [CR005371]", "TTR", 0.31),
]

Moving on to the next sequence.
Ask: Provide value of Avg % Insert for this record tested with TTR: AAAAGGCUGCUGAUGAGACC (tested as dual guide RNA, chemistry not given here) [CR005372]
Result: 0.83
